Biological target: T1, PTPN13_1, Q12923
T1 sequence (Q12923 1088-1188, limits assumed, looked up): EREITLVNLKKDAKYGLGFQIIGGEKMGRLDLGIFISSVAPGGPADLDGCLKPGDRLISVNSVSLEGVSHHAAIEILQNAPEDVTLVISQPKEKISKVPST
Experiment: holdup assay
Set-up: key: below the threshold = too weak to quantify, mostly under pKd 3.1 to 4
Details: plain residues with an end cap or a label only (N-terminal biotin on a linker: ado-ado)
valueType: pKd

* QMNQTLPVQV [EPHB3, P54753] | below the threshold
* SKENVQETQI [LRRC4B, Q9NT99] | below the threshold
* GNSVLKSTQF [SLC22A12, Q96S37] | below the threshold
* QSLNRMEYIV [JAG1, P78504] | below the threshold
* LPHPHSTTRV [NLGN2, Q8NFZ4] | below the threshold
* PRISRSQSEL [CCDC134, Q9H6E4] | below the threshold

Entry under test: NHSSSPETTA [TRMT13, Q9NUP7] . Its pKd was below the threshold

Entry under test: EVEEFPETSV [TRPV3, Q8NET8] . Its pKd was 3.58

The measurements presented in this section are drawn from paper PMC9482650.
